Below, each of the molecules is paired with its reported z-score value.
experiment description: modulators of glucocorticoid suppression of NF-kB, cell-based, luciferase, IL-1B stimulus, dexamethasone (AID 624486)
study conditions: NF-kB luciferase reporter, IL-1B + dexamethasone, luminescence; measured here: IL-1B alone, no Dex

[
  {
    "molecule": "Fc1ccc(-c2c(-c3ccncc3)[nH]c3cccnc23)cc1",
    "z-score": 0.075
  },
  {
    "molecule": "O=C(NCC1CC1)c1ccc(-c2cccc(C(=O)NC3CC3)c2)cc1",
    "z-score": 1.28
  },
  {
    "molecule": "CCOc1ccc2c(-c3ccnc(Nc4cc(OC)cc(C(F)(F)F)c4)n3)cnn2n1",
    "z-score": 1.62
  },
  {
    "molecule": "COc1cc(C)c(N(C)C(=O)CN(C)C)cc1Nc1nc(Nc2cccc(F)c2C(N)=O)c2cc[nH]c2n1",
    "z-score": 0.76
  },
  {
    "molecule": "NS(=O)(=O)c1ccc(N=Nc2c(=O)[nH]c3ccc4[nH]cccc4c23)cc1",
    "z-score": 1.98
  },
  {
    "molecule": "O=C1NC(=NC2CC2c2ccccc2)SC1=Cc1ccc2ncccc2c1 (stereo unspecified)",
    "z-score": -4.3
  },
  {
    "molecule": "COc1ccc(OC)c(C2=C(c3cn(C)c4ccccc34)C(=O)NC2=O)c1",
    "z-score": -0.03
  },
  {
    "molecule": "Fc1cccc(COc2ccc(Nc3ncnc4sc(-c5cccs5)cc34)cc2Cl)c1",
    "z-score": 0.005
  },
  {
    "molecule": "CC(C)=Cc1cccc2[nH]c(O)c(N=Nc3ccc(S(N)(=O)=O)cc3)c12",
    "z-score": 1.89
  },
  {
    "molecule": "NS(=O)(=O)c1ccc(Nc2ncc(-c3ccccc3)o2)cc1",
    "z-score": 0.745
  },
  {
    "molecule": "CC1=C(C(=O)Nc2ccc3n[nH]c(C)c3c2)C(c2ccc(C(F)(F)F)cc2)CC(=O)N1 (stereo unspecified)",
    "z-score": -1.14
  },
  {
    "molecule": "O=C1Nc2ccccc2/C1=C1\\CCc2cc(O)ccc21",
    "z-score": 1.81
  },
  {
    "molecule": "COc1cc(Nc2nccc(-c3cnn4ncccc34)n2)cc(OC)c1",
    "z-score": -7.79
  },
  {
    "molecule": "Cn1cc(C2=C(c3ccccc3[N+](=O)[O-])C(=O)NC2=O)c2ccccc21",
    "z-score": -1.21
  },
  {
    "molecule": "N#Cc1c(NC(=O)c2cccc3ccccc23)sc2c1CCCN2C(=O)C1CC1",
    "z-score": -0.12
  },
  {
    "molecule": "CCn1c(-c2nonc2N)nc2cnc(Oc3cccc(NC(=O)c4ccc(N(C)C)cc4)c3)cc21",
    "z-score": -0.295
  },
  {
    "molecule": "CC(=O)NC(Cc1ccc(OP(=O)(O)O)cc1)C(=O)NC1CCC(=O)N2CCCC(C(=O)NCc3cccc4ccccc34)N2C1=O (stereo unspecified)",
    "z-score": -0.165
  },
  {
    "molecule": "Cn1cc(C2=C(n3ccc4ccccc43)C(=O)NC2=O)c2ccccc21",
    "z-score": 0.125
  },
  {
    "molecule": "COc1cccc(C2=C(c3c(C)n(C)c4ccccc34)C(=O)NC2=O)c1",
    "z-score": -0.5
  },
  {
    "molecule": "CCc1c(C)nc2sc3c(N)ncnc3c2c1C",
    "z-score": -4.42
  },
  {
    "molecule": "CCCN1CCCC(c2ccc(Nc3nc(Nc4cc(F)ccc4C(N)=O)c4cc[nH]c4n3)c(OC)c2)C1 (stereo unspecified)",
    "z-score": -2.44
  },
  {
    "molecule": "O=C1Nc2ccc(F)c3c(OCCO)cc(-c4ccc[nH]4)c1c23",
    "z-score": 1.54
  },
  {
    "molecule": "NS(=O)(=O)c1ccc(N=Nc2c(O)[nH]c3ccc(C(=O)NCc4ccncc4)cc23)cc1",
    "z-score": -0.595
  },
  {
    "molecule": "COc1ccc(F)cc1C(=O)c1cnc(NC2CCN(S(C)(=O)=O)CC2)nc1N",
    "z-score": -0.18
  },
  {
    "molecule": "Clc1ccc(-c2nn3ncccc3c2-c2ccnc(Nc3ccccc3)n2)cc1",
    "z-score": -0.705
  },
  {
    "molecule": "COc1cccc(C2=C(c3cn(C)c4ccc(Cl)cc34)C(=O)NC2=O)c1",
    "z-score": 0.245
  },
  {
    "molecule": "O=[N+]([O-])c1ccc2c(c1)C(c1ccccc1Cl)=Nc1c(n[nH]c1-c1cccnc1)N2",
    "z-score": -0.45
  },
  {
    "molecule": "Cn1cc(C2=C(c3cn(C)c4cc(C(N)=O)ccc34)C(=O)NC2=O)c2ccccc21",
    "z-score": -0.22
  },
  {
    "molecule": "COc1cc(Nc2ncc(-c3ccccc3)o2)cc(OC)c1",
    "z-score": 5.51
  },
  {
    "molecule": "CC1=C(C(=O)Nc2ccc3[nH]ncc3c2)C(c2ccc(F)cc2)NC(=O)N1 (stereo unspecified)",
    "z-score": 0.22
  },
  {
    "molecule": "NCc1ccc(-n2c(-c3nonc3N)nc3cnccc32)cc1",
    "z-score": -3.59
  },
  {
    "molecule": "CC(C)COC(=O)c1ccc2[nH]c(O)c(C=Nc3ccc(S(N)(=O)=O)cc3)c2c1",
    "z-score": 0.975
  },
  {
    "molecule": "CNC(=O)c1cncc(/C=C/c2ccccc2Cl)c1",
    "z-score": 0.82
  },
  {
    "molecule": "Cn1cc(C2=C(c3cn(C)c4c(N)cccc34)C(=O)NC2=O)c2ccccc21",
    "z-score": -1.47
  },
  {
    "molecule": "CCc1nccc2c1nc(-c1nonc1N)n2CC",
    "z-score": -2.37
  },
  {
    "molecule": "Cn1cc(C2=C(c3c4n(c5ccccc35)CCC(CN)CC4)C(=O)NC2=O)c2ccccc21 (stereo unspecified)",
    "z-score": -0.165
  },
  {
    "molecule": "COc1cccc(-n2cnc3c(N/N=C/c4ccncc4)ncnc32)c1",
    "z-score": 0.5
  },
  {
    "molecule": "NS(=O)(=O)c1ccc(N=Nc2c(O)[nH]c3ccc(C(=O)NCCCn4ccnc4)cc23)cc1",
    "z-score": -0.125
  },
  {
    "molecule": "CNC(=O)c1cc(-c2ccc(F)cc2)cc(-c2ccc(S(=O)(=O)N3CCCC3)cc2)c1N",
    "z-score": -0.05
  },
  {
    "molecule": "CC(=O)Nc1ccc2c(C3=C(c4cn(C)c5ccccc45)C(=O)NC3=O)cn(C)c2c1",
    "z-score": -1.25
  },
  {
    "molecule": "COc1cc2ncn(-c3cc(OCc4ccccc4C(F)(F)F)c(C(N)=O)s3)c2cc1OC",
    "z-score": -0.44
  }
]

The measurements presented in this section are drawn from PubChem BioAssay.
